System: OVCAR-4 ovarian
Assay: NCI tumour cell line growth inhibition, 48 h
measurement kind: TGI

Cc1ccc(O)c(C2=CC3=NNC(=O)C3C(c3cccc(Cl)c3)C2)c1 (configuration not stated) :: 44.3 µM
COC/N=C(\NC#N)NCOC :: > 100 µM
CC1(C)COC2C(N(Cc3ccccc3)Cc3ccccc3)C(=O)N21 (configuration not stated) :: > 100 µM
C#CCN(N=O)C(=O)ON1C(=O)CCC1=O :: > 100 µM
COc1cc(-c2ccc(N=Nc3ccc4c(S(=O)(=O)O)cc(S(=O)(=O)O)c(N)c4c3O)c(OC)c2)ccc1N=Nc1ccc2c(S(=O)(=O)O)cc(S(=O)(=O)O)c(N)c2c1O :: > 100 µM
O=c1nc2ccc([N+](=O)[O-])cc2[n+]([O-])[nH]1 :: > 100 µM
COc1ccccc1-c1cc(=O)c2cc(C)c(C)c(C(=O)O)c2o1 :: > 100 µM
Clc1ccc(-c2cc(-c3cc4cc(Br)ccc4nc3Cl)on2)cc1 :: > 50 µM
O=c1c2c(-c3ccccc3)c3ccccc3nc2cnn1-c1ccccc1 :: > 100 µM
COc1ccc2oc(S(=O)(=O)N3CC(CCl)c4ccc(N)cc43)cc2c1 (configuration not stated) :: > 100 µM

Query string: Value lookup for TGI; key = O=c1[nH]nc(Cc2ccccc2)n1/N=C/c1ccco1
Result string: > 100 µM

Query string: Value lookup for TGI; key = CCc1ccc2[nH]c(O)c(C3=Nc4ccccc4C3=O)c2c1
Result string: 61.3 µM

Query string: Value lookup for TGI; key = N#Cc1c(=O)c2ccccc2n2ccccc12
Result string: > 100 µM

Query string: Value lookup for TGI; key = CN=C(Nc1ccc(OC)c2ccccc12)SC
Result string: > 10 µM

Query string: Value lookup for TGI; key = CC1=Nc2ccccc2SC(c2c(Cl)cccc2Cl)C1 (configuration not stated)
Result string: 4.56 µM

Query string: Value lookup for TGI; key = COc1cc(OC)c2sc(-c3ccc(-n4cncc4-c4ccc(OC)c(OC)c4)cc3)nc2c1
Result string: > 100 µM

Query string: Value lookup for TGI; key = COc1ccc(-c2cnnn2-c2nonc2-n2cccc2)cc1OC
Result string: > 100 µM

Query string: Value lookup for TGI; key = Nc1[nH]c(=O)nc2snnc12
Result string: > 100 µM

Query string: Value lookup for TGI; key = CCC(=O)N/S(=N/S(=O)(=O)c1ccccc1)C(Cl)(Cl)Cl (configuration not stated)
Result string: > 100 µM

---

A collection of compounds and their measured log10 of TGI
System: M14 melanoma
Test: NCI tumour cell line growth inhibition, 48 h
Please note: log10 values; quantity TGI; unit µM.

These recorded examples may help you get a feel for the data.
Nc1nc(N)c2cc(Sc3ccc4ccccc4c3)ccc2n1 :: 0.46
Clc1ccc(-c2cc(-c3cc4cc(Br)ccc4nc3Cl)on2)cc1 :: 1.58
CCCc1nc(Cl)nc(Cl)c1Cl :: 0.05
C[N+](C)(C)CC1CCCCC1=O (configuration not stated) :: 1.48
O=[N+]([O-])c1cc([As](Br)c2ccc(O)c([N+](=O)[O-])c2)ccc1O :: 0.64
C[C@@H](C[C@H]1OC(C)(C)O[C@@H]1C(C)(C)O)[C@H]1CC=C2[C@]3(C)[C@H](O)C[C@H]4C(C)(C)[C@H](O)CC[C@]4(C)[C@H]3CC[C@]21C :: 1.25
O=C(CC1(O)C(=O)Nc2ccc(F)cc21)c1ccc(C(=O)NCC2CCC3(CC2)OOC2(CCCCC2)OO3)cc1 (configuration not stated) :: 1.59
COc1cc([C@@H]2c3cc4c(cc3[C@H](OC(C)=O)[C@H]3COC(=O)[C@@H]23)OCO4)cc(OC)c1OC :: 0.72

Let's switch to this compound now.
Query string: Hello, I am looking for reported log10 of TGI with M14 melanoma for Clc1ccccc1CN1COc2c(ccc3cccnc23)C1 . Could you help?
Result string: 1.03

---

A collection of compounds and their measured GI50
Tested on: UACC-62 melanoma
Assay: NCI tumour cell line growth inhibition, 48 h

Cc1cc(N/N=C/c2nc(-c3ccc(Cl)cc3)oc2C)c2cc(Br)ccc2n1 :: 2020 nM
CN(C)CCCOc1cccc(NC2=C(Cl)C(=O)C(Nc3cccc(OCCCN(C)C)c3)=C(Cl)C2=O)c1 :: 1500 nM
N=c1ccc2nc3ccc(N)cc3sc-2c1 :: 2930 nM
Cc1ccc(S(=O)(=O)c2nc(-c3ccccc3)oc2S(C)(=O)=O)cc1 :: 1890 nM
O=C(c1ccc2ccccc2c1)c1nc2cc(F)ccc2[n+]([O-])c1C(F)(F)F :: 17000 nM

Query string: Value lookup for GI50; key = CC(=O)OC(C(=O)[O][Sn]([CH3])([CH3])[CH3])c1ccccc1 (stereo not given)
Result string: > 100000 nM

Query string: Value lookup for GI50; key = O=C(NN1C(=O)CSC1c1cccc(Cl)c1)C(O)c1ccccc1 (stereo not given)
Result string: 23100 nM

Query string: Value lookup for GI50; key = O=C1c2cccnc2-c2nc(-c3cccnc3)cc3c2c1nc1ccccc13
Result string: 13300 nM

Query string: Value lookup for GI50; key = Cc1cn(-c2cccc(NC(=O)c3ccc(C)c(Nc4nccc(-c5cccnc5)n4)c3)c2)cn1
Result string: 1650 nM

Query string: Value lookup for GI50; key = COc1ccc(-c2nc(-c3nc4cc(Cl)c(F)cc4[nH]3)c3ccccn23)cc1
Result string: 6050 nM

---

Tested on: UACC-62 melanoma
Test: NCI tumour cell line growth inhibition, 48 h
A collection of molecules and their measured TGI
Give a bare numeral; the unit µM is implied.

These recorded examples may help you get a feel for the data.
N#CC1=C(N)N(/N=C/c2ccccc2)C(c2ccccc2)C1(C#N)C#N (stereo not given) :: 29.5
COc1cc(C2c3cc4c(cc3OC(NNS(=O)(=O)c3ccc(C)cc3)C2C)OCO4)cc(OC)c1OC (stereo not given) :: 20.3

Query string: Value lookup for TGI; key = Nc1ccccc1C#CC(=O)c1cccc(C(F)(F)F)c1
Result string: 3.85

---

System: NCI-H23 lung
Test: NCI tumour cell line growth inhibition, 48 h
A collection of molecules and their measured log10(TGI)
Please note: log10 values; quantity TGI; unit µM.

These recorded examples may help you get a feel for the data.
CCSc1ccc([C@@H]2[C@@H](O)C(=O)N2c2cc(OC)c(OC)c(OC)c2)cc1 :: 1.79
O=C(O)c1nc2ccc(C(F)(F)F)cc2nc1Nc1ccc(Cl)c(Cl)c1 :: 1.28
CC1=Nc2ccccc2SC(c2c(Cl)cccc2Cl)C1 (configuration not stated) :: 0.42
O=C(CC1(O)C(=O)Nc2ccc(F)cc21)c1ccc(C(=O)NCC2CCC3(CC2)OOC2(CCCCC2)OO3)cc1 (configuration not stated) :: 1.30

Query string: Value lookup for log10(TGI); key = C/C(=N\NC(=S)N1CCC(N2CCCCC2)CC1)c1ccccn1
Result string: 1.08

Query string: Value lookup for log10(TGI); key = Cc1ccc(Cl)cc1N=NC(=O)NNc1cc(Cl)ccc1C
Result string: 1.65

Query string: Value lookup for log10(TGI); key = CC(NC(=O)Cc1ccc(C(F)(F)P(=O)(OCc2ccc([N+](=O)[O-])o2)N(C)CCCCCl)cc1)c1ccc(OCC2CCCCC2)c(C(N)=O)c1 (configuration not stated)
Result string: 1.18

Query string: Value lookup for log10(TGI); key = C=C1C(=O)O[C@H]2[C@H]1CC/C(Cn1cc(-c3ccc(N)cc3)nn1)=C\CC[C@@]1(C)O[C@@H]21
Result string: 0.89

Query string: Value lookup for log10(TGI); key = CC1(C)OCC(C2OC3OC(C)(C)OC3C2c2ccccc2)O1 (configuration not stated)
Result string: 1.99

Query string: Value lookup for log10(TGI); key = c1cc2c3c(c1)c1cc4c(cc1c[n+]3CC2)OCO4
Result string: 1.14

Query string: Value lookup for log10(TGI); key = O=C1C(CO)=C[C@H](O)[C@H]2O[C@@H]12
Result string: 2.77

---

System: RPMI-8226 leukemia
Test: NCI tumour cell line growth inhibition, 48 h
measurement kind: GI50

These recorded examples may help you get a feel for the data.
CCOc1cc(/C=C/C(=O)C(C(=O)/C=C/c2ccc(OC(=O)CNc3nc4ccccc4[nH]3)c(OCC)c2)C(=O)CNc2nc3ccccc3[nH]2)ccc1OC(=O)CNc1nc2ccccc2[nH]1 :: 754 nM
Cn1c(=O)n(C)c2cc(CNCCNc3ccnc4cc(Cl)ccc34)ccc21 :: 20900 nM
COc1cccc2c1C(=O)c1c(O)c3c(c(O)c1C2=O)C[C@@](O)(C(=O)COC(=O)c1ccccc1)C[C@@H]3OC1CC(N)C(O)C(C)O1 (stereo not given in full) :: 193 nM
CCOC(=O)c1sc(-c2ccc(OS(=O)(=O)C[C@]34CCC(CC3=O)C4(C)C)c(C=O)c2)nc1C :: 822 nM
CCN1[C@@H](C(=O)NC23CCC(C(=O)O)(CC2)CC3)[C@H](c2cccc(Cl)c2F)[C@]2(C(=O)Nc3cc(Cl)ccc32)C12CCCCC2 :: 2330 nM
COc1cc([C@@H]2c3cc4c(cc3[C@H](OC(C)=O)[C@H]3COC(=O)[C@@H]23)OCO4)cc(OC)c1OC :: 445 nM
FC(F)(F)c1ccc(-c2nn3ncccc3c2-c2ccnc(Nc3ccc4c(c3)OCCO4)n2)cc1 :: 5970 nM
COc1cccc(CNc2ncnc3c2ncn3C2OC(CO)C(O)C2O)c1O (stereo not given) :: 319 nM

Query string: Value lookup for GI50; key = N=c1ccc2nc3ccc(N)cc3sc-2c1
Result string: 2870 nM

Query string: Value lookup for GI50; key = O=C1c2cccnc2-c2nc(-c3cccnc3)cc3c2c1nc1ccccc13
Result string: 2590 nM

Query string: Value lookup for GI50; key = CC(C)(C)[Si](C)(C)OC1[C@@H](CNC(N)=O)O[C@@H](n2cnc3c(NC(=O)Nc4ccccc4)ncnc32)[C@H]1O[Si](C)(C)C(C)(C)C (stereo not given in full)
Result string: 1120 nM

Query string: Value lookup for GI50; key = c1ccc(-c2nc3n(c2-c2ccc4c(c2)OCO4)CCC3)nc1
Result string: 9880 nM
